Measured values drawn from PubChem BioAssay (NCI) for this set.

# Tested on: NCI-H226 lung
# experiment: NCI-60 one-dose screen, 48 h
# test-conditions: 10 µM
This is part of a sample that, as a whole, favours compounds with a hit. Of some 83,000 tested, about 20% had one in any assay. Active and inactive are the calls of the source. The calls were made as follows: active = growth percent below 10; inactive = the rest.
Classes used: t = active, f = inactive

compound: O=C(Nc1cccc(-n2cc(-c3ccncc3)c(-c3cc(O)cc(Cl)c3)n2)c1)c1ccc(N2CCOCC2)c(C(F)(F)F)c1
category: f
--
compound: Clc1ccc(Nc2ccnc(NCCNc3ccnc4cc(Cl)ccc34)n2)cc1
category: f
--
compound: CC(=O)N1N=C(c2ccc(Cl)cc2)CC1c1sc(Cl)nc1Cl (stereo not given)
category: f
--
compound: O=C(O)C(SC(C(=O)O)c1ccccc1)c1ccccc1 (stereo not given)
category: f
--
compound: N=c1nc(N)ncn1-c1ccccc1
category: f
--
compound: O=[N+]([O-])c1ccc(N/N=C/c2cccc3ccccc23)nc1
category: f
--
compound: COc1cccc(NC(=O)c2sc3nc4c(cc3c2N)C(O)CCC4)c1 (stereo not given)
category: f
--
compound: COc1ccc2c(c1)N(CCO)C1=C(C(=O)OC1)C2c1ccc(OC)c(OC)c1 (stereo not given)
category: f
--
compound: Nc1cc2c(cc1Cl)-c1ccc([N+](=O)[O-])cc1/C2=N\O
category: f
--
compound: O=C(Nc1ccc(Cl)c([N+](=O)[O-])c1)Nc1nc2ccccc2s1
category: f
--
compound: COc1ccc(-c2nn(-c3cccc(NC(=O)Nc4ccccc4)c3)cc2-c2ccncc2)cc1Cl
category: f
--
compound: N=C(N)c1ccc(-c2ccc(-c3cccs3)s2)s1
category: f
--
compound: N#CCCN1C/C(=C/c2ccccc2)C(=O)/C(=C/c2ccccc2)C1
category: f
--
compound: Cc1ccc(-c2nc(/C=C3/C(=O)N(C)c4ccc(F)cc43)c3ccccn23)cc1
category: f
--
compound: O=C(Nc1ccccc1)Nc1cccc(-n2cc(-c3ccncc3)c(-c3ccc(O)c(Cl)c3)n2)c1
category: f
--
compound: COc1ccc(Cl)cc1C(=O)Nc1nc2ccc(Cl)cc2s1
category: f
--
compound: Nc1ccc2c(c1)C1(CCC2)NC(=O)NC1=O (stereo not given)
category: f
--
compound: COC(=O)C(=C\c1ccc2c(c1)OCO2)/C(=C/c1ccc2c(c1)OCO2)C(=O)OC
category: f
--
compound: CN(C)CCS(=O)(=O)CCN(C)C
category: f
--
compound: COc1ccc(-c2csc(NC(=O)CSc3nc(C)c(-c4ccccc4)n3Nc3ccccc3)n2)cc1
category: f
--
compound: COc1cc([C@@H]2c3cc4c(cc3C(Br)[C@H]3COC(=O)[C@H]23)OCO4)cc(OC)c1OC (stereo not given in full)
category: f
--
compound: Cc1nc2ccc(CN(C)c3ccc(C(=O)N[C@@H](CCC(=O)O)C(=O)O)s3)cc2c(=O)[nH]1
category: f
--
compound: COc1ccc(NC(=O)Cc2nc3nc4sc(C)c(C)c4c(=O)n3[nH]2)cc1
category: f
--
compound: CC/C(=N\N=C(/CC)c1ccc(Br)cc1)c1ccc(Br)cc1
category: f
--
compound: O=C(Cc1csc2nc(-c3ccc(Cl)cc3)cn12)N/N=C/c1ccccc1O
category: f
--
compound: Oc1[nH]c2ccc(Cl)cc2c1/C=c1/ccc2c(c1)N=C(c1cc(F)cc(F)c1)N=2
category: f
--
compound: N#Cc1cccc(OCc2nc(N)nc(N)c2-c2ccc(Cl)c(Cl)c2)c1
category: f
--
compound: COc1cc(-c2nnc(-c3c(-c4ccc(F)cc4)nc4ccccn34)o2)cc(OC)c1OC
category: f
--
compound: CCc1ccc2c(c1)N(CCO)C1=C(C(=O)OC1)C2c1cc(OC)c(OC)c(OC)c1 (stereo not given)
category: t
--
compound: CCCCCCCCCCCCCCCCN(C(C)c1ccccc1)S(=O)(=O)c1ccc(OC)c(N)c1 (stereo not given)
category: f
--
compound: O=C(O)CN1C(=O)c2cccc3cccc(c23)C1=O
category: f
--
compound: COc1ccc(-c2nn(-c3cccc(NC(=O)c4ccc(N5CCOCC5)c(C(F)(F)F)c4)c3)cc2-c2ccncc2)cc1Cl
category: f
--
compound: c1ccc2c(-c3nc(N4CCOCC4)c4c5c(sc4n3)CCCCCC5)cccc2c1
category: f
--
compound: CN1CCCNc2c(c(=O)c2=O)NCCCN(C)CCCNc2c(c(=O)c2=O)NCCCN(C)CCCNc2c(c(=O)c2=O)NCCCN(C)CCCNc2c(c(=O)c2=O)NCCCN(C)CCCNc2c(c(=O)c2=O)NCCCN(C)CCCNc2c(c(=O)c2=O)NCCCN(C)CCCNc2c(c(=O)c2=O)NCCC1
category: f
--
compound: Clc1ccc2c(NCCCNc3nccc(Nc4ccc(Br)cc4)n3)ccnc2c1
category: f
--
compound: COc1ccc(Nc2ncnc3c2c(SC)nn3-c2ccccc2)cc1
category: f
--
compound: CN(C)C(=S)N/N=C\C=N/NC(=S)N(C)C
category: f
--
compound: COc1ccc(-c2nc3sccn3c2-c2nc3c([nH]2)C(=O)c2ccccc2C3=O)cc1
category: f
--
compound: CN(C)Cc1cn(-c2ncc(-c3ccc(C(F)(F)F)cc3)c(NC3CCCCCC3)n2)nn1
category: f
--
compound: O=C1C(c2ccccc2)C2C=CC(C2)N1O (stereo not given)
category: f
